B1: ESRRA (parent)
chain: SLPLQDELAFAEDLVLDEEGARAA

Variants of: B1
PROTOCOL NOTES: protein stability index of a GFP-peptide fusion (GPS, HEK-293T) (PSI 1-6); higher = more stable;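 note: lentivirally expressed fusions sorted by FACS into six bins by GFP to DsRed ratio, PSI derived from sequencing read proportions per bin multiplied by bin number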
APPLIED CONDITIONS: c terminus: a fixed tail appended
Is protein stability index at least 4? Then Fulfilled. If not, Not fulfilled.

QUERY: State whether the measured protein stability index reaches 4, counting equality as reaching it, for "D17F"
RESULT: Not fulfilled

QUERY: State whether the measured protein stability index reaches 4, counting equality as reaching it, for "D13L"
RESULT: Not fulfilled

QUERY: State whether the measured protein stability index reaches 4, counting equality as reaching it, for "E18I"
RESULT: Not fulfilled

QUERY: State whether the measured protein stability index reaches 4, counting equality as reaching it, for "A21I"
RESULT: Not fulfilled

QUERY: State whether the measured protein stability index reaches 4, counting equality as reaching it, for "A24V"
RESULT: Not fulfilled

QUERY: State whether the measured protein stability index reaches 4, counting equality as reaching it, for "D6N"
RESULT: Not fulfilled

QUERY: State whether the measured protein stability index reaches 4, counting equality as reaching it, for "Q5L"
RESULT: Not fulfilled

QUERY: State whether the measured protein stability index reaches 4, counting equality as reaching it, for "E12A"
RESULT: Fulfilled

QUERY: State whether the measured protein stability index reaches 4, counting equality as reaching it, for "F10G"
RESULT: Fulfilled

QUERY: State whether the measured protein stability index reaches 4, counting equality as reaching it, for "E12W"
RESULT: Fulfilled

QUERY: State whether the measured protein stability index reaches 4, counting equality as reaching it, for "A9K"
RESULT: Not fulfilled

QUERY: State whether the measured protein stability index reaches 4, counting equality as reaching it, for "V15Y"
RESULT: Fulfilled

QUERY: State whether the measured protein stability index reaches 4, counting equality as reaching it, for "P3G"
RESULT: Fulfilled

QUERY: State whether the measured protein stability index reaches 4, counting equality as reaching it, for "V15C"
RESULT: Fulfilled

QUERY: State whether the measured protein stability index reaches 4, counting equality as reaching it, for "A23S"
RESULT: Not fulfilled

QUERY: State whether the measured protein stability index reaches 4, counting equality as reaching it, for "A11I"
RESULT: Fulfilled

QUERY: State whether the measured protein stability index reaches 4, counting equality as reaching it, for "V15K"
RESULT: Fulfilled

QUERY: State whether the measured protein stability index reaches 4, counting equality as reaching it, for "L8K"
RESULT: Fulfilled

QUERY: State whether the measured protein stability index reaches 4, counting equality as reaching it, for "E12T"
RESULT: Fulfilled

QUERY: State whether the measured protein stability index reaches 4, counting equality as reaching it, for "P3W"
RESULT: Fulfilled

QUERY: State whether the measured protein stability index reaches 4, counting equality as reaching it, for "A24L"
RESULT: Not fulfilled

QUERY: State whether the measured protein stability index reaches 4, counting equality as reaching it, for "S1G"
RESULT: Not fulfilled

QUERY: State whether the measured protein stability index reaches 4, counting equality as reaching it, for "A9I"
RESULT: Fulfilled

QUERY: State whether the measured protein stability index reaches 4, counting equality as reaching it, for "F10L"
RESULT: Not fulfilled

QUERY: State whether the measured protein stability index reaches 4, counting equality as reaching it, for "L16W"
RESULT: Not fulfilled

QUERY: State whether the measured protein stability index reaches 4, counting equality as reaching it, for "S1R"
RESULT: Not fulfilled

QUERY: State whether the measured protein stability index reaches 4, counting equality as reaching it, for "P3D"
RESULT: Fulfilled

QUERY: State whether the measured protein stability index reaches 4, counting equality as reaching it, for "A11D"
RESULT: Fulfilled

QUERY: State whether the measured protein stability index reaches 4, counting equality as reaching it, for "A11K"
RESULT: Fulfilled

QUERY: State whether the measured protein stability index reaches 4, counting equality as reaching it, for "E7C"
RESULT: Not fulfilled
